Here the recorded remaining at 1 h is given for each entry.
- experimentDescription: Metabolic stability in human liver microsomes after 1 hr
- Assay type: ADME, Microsome
- measurementConditions: read-out: Stability
Write it as a number; the unit % goes unstated.

O=C(O)c1ccc(CN2CCC(Nc3ccc(Oc4ccc(-c5ncco5)cc4)cc3)CC2)cc1	92
O=C(O)c1ccc(CN2[C@@H]3CC[C@H]2C[C@@H](Nc2ccc(Oc4ccc(F)cc4)cc2)C3)cc1	97
O=C(O)c1ccc(CN2[C@@H]3CC[C@H]2C[C@@H](Nc2ccc(Oc4ccccc4)cc2)C3)cc1	94

IN: // returns reported remaining at 1 h for input O=C(O)c1ccc(CN2[C@@H]3CC[C@H]2C[C@@H](Nc2ccc(Oc4ccc(-c5ncco5)cc4)cc2)C3)cc1
OUT: 82

IN: // returns reported remaining at 1 h for input CN(CCCNc1ccc(Oc2ccc(-c3ncco3)cc2)cc1)Cc1ccc(C(=O)O)cc1
OUT: 81

IN: // returns reported remaining at 1 h for input O=C(O)c1ccc(CN2[C@@H]3CC[C@H]2C[C@@H](Nc2ccc(Oc4ccc(Cl)cc4)cc2)C3)cc1
OUT: 99
